experimental target: T1, AFP158/HLA-A*02:01 complex (human)
T1 construct: flowed over the chip in SPR; also called AFP158 pro
assay remarks: SPR, KD ratio to AS170036 VL1VH1;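 further: crude scFv captured on a sensor chip, peptide–HLA complex passed over at several concentrations, association then buffer dissociation, KD derived from on- and off-rates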

>  <binder>
HG108L (scFv, AS170036 VL1VH1 scFv mutein) scFv: QSALTQPRSVSGSPGQSVTISCAGTSSDVGSENYVSWYQQHPGKAPKLMIYQVNKRASGVPDRFSGSKSGNTASLTISGLQAEDEADYYCASYRSSDHNIVFGGGTKLTVLGGGGSGGGGSGGGGSEVQLVESGGGLVQPGGSLRLSCAASGFTFSSYAMSWVRQAPGKGLEWVSTINSGTGSPYYADSVKGRFTISRDNSKNTLYLQMNSLRAEDTAVYYCAKNFFDGSWFLLPPAMDYWGQGTLVTVSSHHHHHH

>  <Affinity increase [fold]>
1.4

$$$$
>  <binder>
HG108S (scFv, AS170036 VL1VH1 scFv mutein; also called AS170036 VL1VH1-VHG108S) scFv: QSALTQPRSVSGSPGQSVTISCAGTSSDVGSENYVSWYQQHPGKAPKLMIYQVNKRASGVPDRFSGSKSGNTASLTISGLQAEDEADYYCASYRSSDHNIVFGGGTKLTVLGGGGSGGGGSGGGGSEVQLVESGGGLVQPGGSLRLSCAASGFTFSSYAMSWVRQAPGKGLEWVSTINSGTGSPYYADSVKGRFTISRDNSKNTLYLQMNSLRAEDTAVYYCAKNFFDGSWFLSPPAMDYWGQGTLVTVSSHHHHHH

>  <Affinity increase [fold]>
2.8

$$$$
>  <binder>
HG56D (scFv, AS170036 VL1VH1 scFv mutein) scFv: QSALTQPRSVSGSPGQSVTISCAGTSSDVGSENYVSWYQQHPGKAPKLMIYQVNKRASGVPDRFSGSKSGNTASLTISGLQAEDEADYYCASYRSSDHNIVFGGGTKLTVLGGGGSGGGGSGGGGSEVQLVESGGGLVQPGGSLRLSCAASGFTFSSYAMSWVRQAPGKGLEWVSTINSGTDSPYYADSVKGRFTISRDNSKNTLYLQMNSLRAEDTAVYYCAKNFFDGSWFLGPPAMDYWGQGTLVTVSSHHHHHH

>  <Affinity increase [fold]>
1

$$$$
